- Tested on: CD2F1 mice, L1210 leukemia ip, survival T/C
- METHOD_SUMMARY: NCI In Vivo Anticancer Drug Screen. Data for tumor model L1210 Leukemia (intraperitoneal) in CD2F1 (CDF1) mice
- RUN_PARAMETERS: endpoint: mean survival time; dose: 400.0 mg/kg/injection; schedule: Q04DX002 (ip); vehicle: saline
- Description: The antitumor activity of compounds was measured in mice bearing transplantable tumors. Survival or tumor size were measured and the results are expressed as the measurement made in the treated group (T) divided by the measurement made in the vehicle treated control group (C). The tumor model used in this assay is L1210 Leukemia (intraperitoneal) in CD2F1 (CDF1) mice
Toxic doses and inconclusive results are not listed. How the source made its calls: active means survival T/C of 150% or more; inactive means T/C below 125% in these data.
Select the matching outcome among active, inactive

Observe how each entry below is paired with its result.
INSERT INTO results (compound, label) VALUES
  ('NC1CCC(=O)NC1c1ccccc1 (configuration not stated)', 'inactive'),
  ('N#CC(N)=O', 'inactive'),
  ('CC1=NCCN1CCN', 'inactive'),
  ('N[C@@H](C[C@H]1CCC(=O)[C@@H]2O[C@H]12)C(=O)O', 'active');

Tell me the assay call for `Brc1ccc(N=Cc2ccccc2)cc1` please. inactive

What call does the record list for `O=[N+]([O-])c1cc(S(=O)(=O)O)cc(S(=O)(=O)O)c1O` ? inactive

# fetch the recorded call for `Cc1nc(CCCCCCCC(=O)O)ccc1O` here inactive
